Just for reference, the supplement of paper PMC13380429 is where these values come from.

- System: HepG2
- assay method text: cell viability relative to DMSO; higher = less toxic
- measurement context: 72 h; 10000 nM
Criterion: cell viability strictly under 90%. Met: met. Not met: not met.

Take a look at these entries with their results.
Exercise: Lab note: cell viability threshold 90%. Does this compound come in strictly under it? C[C@H](Nc1ncnc2nc[nH]c12)c1cc2cccc(Cl)c2c(=O)n1-c1ccccc1 [duvelisib]
Solution: met

Exercise: Does CC(=O)OCC1=C(C(=O)O)N2C(=O)[C@@H](NC(=O)Cc3cccs3)[C@H]2SC1 [cephalothin] have cell viability strictly under 90%?
Solution: met

Exercise: Please let me know if CCCC1(CCC)CCC2(CCN(CCCN(CC)CC)C2)CC1 [atiprimod] shows cell viability below 90%.
Solution: met

Exercise: Identify whether the compound CC(=C\c1ccc(Cl)cc1)/C(C)=N/O [AP-18] records cell viability below 90%.
Solution: not met

Exercise: Decide: cell viability of O=S(=O)(O)c1ccc(-c2c3nc(c(-c4ccc(S(=O)(=O)O)cc4)c4ccc([nH]4)c(-c4ccc(S(=O)(=O)O)cc4)c4nc(c(-c5ccc(S(=O)(=O)O)cc5)c5ccc2[nH]5)C=C4)C=C3)cc1 [TPPS4] strictly below 90%?
Solution: met

Exercise: In plain terms, does Cc1ccc(NC2=CC(=O)c3sc(C)nc3C2=O)cc1 [ryuvidine] come in under 90% for cell viability?
Solution: met

Exercise: Just wondering, is cell viability of CC(C)[C@@]1(NC(=O)[C@@H]2C[C@@H]3c4cccc5[nH]cc(c45)C[C@H]3N(C)C2)O[C@@]2(O)[C@@H]3CCCN3C(=O)[C@H](Cc3ccccc3)N2C1=O [dihydroergocristine] below 90%?
Solution: met

Exercise: Dear reviewer, please state whether CC(C)[C@@H](CN1CC[C@@](C)(c2cccc(O)c2)[C@@H](C)C1)NC(=O)[C@H]1Cc2ccc(O)cc2CN1 [JDTic] has cell viability strictly beneath 90%.
Solution: not met

Here is the next item to consider.
Exercise: Regarding N[C@@H](C(=O)N[C@@H]1C(=O)N2C(C(=O)O)=C(Cl)CC[C@H]12)c1ccccc1 [loracarbef] , kindly confirm whether its cell viability is beneath 90%.
Solution: not met

###

- Test system: HepG2
- assay method text: cell viability relative to DMSO; higher = less toxic
- measurement context: 72 h; 100 nM
Provide the reported cell viability of each item.
Your answer should be a number followed by the unit of measure.

Answered examples (5):
Just so you know, measured cell viability for O=C(NCC(=O)N1CC[C@H](N[C@H]2CC[C@@](O)(c3ccc(-c4ncccn4)cn3)CC2)C1)c1cccc(C(F)(F)F)c1 came out at 105%

get_value(item= NC(=O)[C@@H]1CC[C@@H]2CN1C(=O)N2OS(=O)(=O)O , readout=cell viability) returns 90.9%

Summary for this compound, N=C(Nc1ccccc1)Nc1ccccc1 : cell viability is 103%

For CCCC(CCC)C(=O)Nc1ccn([C@@H]2O[C@H](CO)[C@@H](O)C2(F)F)c(=O)n1 the compound record lists cell viability as 85%

Record CO[C@H]1/C=C/O[C@@]2(C)Oc3c(C)c(O)c4c(O)c(c(/C=N/N=C/N5CCCCC5)c(O)c4c3C2=O)NC(=O)/C(C)=C\C=C\[C@H](C)[C@H](O)[C@@H](C)[C@@H](O)[C@@H](C)[C@H](OC(C)=O)[C@@H]1C , field cell viability: 93.3%

Kindly give each listed record's cell viability.
1. NC(=O)c1nc(F)cnc1O [favipiravir]
2. O=C1C(Cl)=C(NCCN2CCOCC2)C(=O)c2ncccc21
3. Cn1cc(-c2ccc(F)c(C(F)(F)F)c2)nc1C1CCN(c2ncnc3[nH]ncc23)CC1
4. COc1cc(NS(=O)(=O)c2ccc(N)cc2)ncn1
5. C[C@H](Nc1ncnc2nc[nH]c12)c1cc2cccc(Cl)c2c(=O)n1-c1ccccc1

Solution:
103%
87.6%
106%
115%
97.9%

// batch mode: one cell viability value per listed entry
1. C[C@@H]1C[C@H]2[C@@H]3CCC4=CC(=O)C=C[C@]4(C)[C@@]3(Cl)[C@@H](O)C[C@]2(C)[C@@]1(OC(=O)c1ccco1)C(=O)CCl [MOMETASONE FUROATE]
2. C[n+]1ccccc1C=NO

Solution:
1: 122%; 2: 102%
